target system: Vascular endothelial growth factor receptor 3 (Homo sapiens) (UniProt P35916)
Sequence (P35916 whole entry): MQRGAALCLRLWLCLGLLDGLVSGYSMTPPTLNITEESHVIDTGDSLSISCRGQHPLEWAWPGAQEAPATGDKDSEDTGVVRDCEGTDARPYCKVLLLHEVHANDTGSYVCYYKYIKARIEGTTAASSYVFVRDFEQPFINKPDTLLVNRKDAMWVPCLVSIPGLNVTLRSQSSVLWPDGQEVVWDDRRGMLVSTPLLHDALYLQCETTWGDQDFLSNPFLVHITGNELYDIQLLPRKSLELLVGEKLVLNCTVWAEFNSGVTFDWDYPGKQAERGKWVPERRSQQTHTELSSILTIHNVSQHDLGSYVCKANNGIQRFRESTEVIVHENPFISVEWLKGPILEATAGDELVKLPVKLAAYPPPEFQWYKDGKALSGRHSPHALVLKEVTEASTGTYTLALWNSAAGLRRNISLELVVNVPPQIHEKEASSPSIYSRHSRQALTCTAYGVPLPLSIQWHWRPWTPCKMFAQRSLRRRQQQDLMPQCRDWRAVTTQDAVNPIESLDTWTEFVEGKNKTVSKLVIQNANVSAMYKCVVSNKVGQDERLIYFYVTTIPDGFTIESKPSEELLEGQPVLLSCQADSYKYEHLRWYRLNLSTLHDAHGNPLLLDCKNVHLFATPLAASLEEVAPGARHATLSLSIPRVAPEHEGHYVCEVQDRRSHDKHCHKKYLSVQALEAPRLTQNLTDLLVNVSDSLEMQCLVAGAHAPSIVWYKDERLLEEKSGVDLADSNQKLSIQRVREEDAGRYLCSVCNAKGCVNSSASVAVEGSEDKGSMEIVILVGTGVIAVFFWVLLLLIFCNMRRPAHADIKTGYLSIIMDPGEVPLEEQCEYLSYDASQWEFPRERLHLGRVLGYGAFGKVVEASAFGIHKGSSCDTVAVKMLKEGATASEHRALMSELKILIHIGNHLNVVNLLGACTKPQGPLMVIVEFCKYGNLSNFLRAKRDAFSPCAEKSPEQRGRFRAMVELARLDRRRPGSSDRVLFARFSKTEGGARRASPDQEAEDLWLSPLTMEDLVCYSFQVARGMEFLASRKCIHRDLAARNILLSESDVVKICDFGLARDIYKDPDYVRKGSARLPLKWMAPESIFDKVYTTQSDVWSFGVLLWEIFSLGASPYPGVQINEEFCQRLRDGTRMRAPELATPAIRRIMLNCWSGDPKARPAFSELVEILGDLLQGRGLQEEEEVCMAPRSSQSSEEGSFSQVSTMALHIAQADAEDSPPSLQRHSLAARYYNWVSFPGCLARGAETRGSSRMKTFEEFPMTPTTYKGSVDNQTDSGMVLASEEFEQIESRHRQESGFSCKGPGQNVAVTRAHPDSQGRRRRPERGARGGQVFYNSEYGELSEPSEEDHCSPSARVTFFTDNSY
experimental parameters: at 10 µM
result type: residual activity (%)
Unit % implied. Number only.

# example entries with known answers
>>> df
                       smiles_structure        result_type  unit  data_value
0    CC(C)(C)c1cc(C=C(C#N)C#N)cc(Br)c1O  residual activity     %          83
1  CCc1nc(-c2ccc(OC)cc2)[nH]c1-c1ccncc1  residual activity     %          77

Find the measured residual activity: item "O=C1c2ccccc2-c2nc3nnnn3nc21" , target or system Vascular endothelial growth factor receptor 3 (Homo sapiens) (UniProt P35916).
70

Find the measured residual activity: item "N/C(=N\[N+](=O)[O-])N/N=C\c1ccc(-c2cccc([N+](=O)[O-])c2)o1" , target or system Vascular endothelial growth factor receptor 3 (Homo sapiens) (UniProt P35916).
42

Find the measured residual activity: item "CCn1cnc2c(Nc3cccc(Cl)c3)nc(N[C@@H]3CCCC[C@@H]3N)nc21" , target or system Vascular endothelial growth factor receptor 3 (Homo sapiens) (UniProt P35916).
2

====

target system: Serine/threonine-protein kinase PLK1 (Homo sapiens) (UniProt P53350)
Sequence (P53350 whole entry): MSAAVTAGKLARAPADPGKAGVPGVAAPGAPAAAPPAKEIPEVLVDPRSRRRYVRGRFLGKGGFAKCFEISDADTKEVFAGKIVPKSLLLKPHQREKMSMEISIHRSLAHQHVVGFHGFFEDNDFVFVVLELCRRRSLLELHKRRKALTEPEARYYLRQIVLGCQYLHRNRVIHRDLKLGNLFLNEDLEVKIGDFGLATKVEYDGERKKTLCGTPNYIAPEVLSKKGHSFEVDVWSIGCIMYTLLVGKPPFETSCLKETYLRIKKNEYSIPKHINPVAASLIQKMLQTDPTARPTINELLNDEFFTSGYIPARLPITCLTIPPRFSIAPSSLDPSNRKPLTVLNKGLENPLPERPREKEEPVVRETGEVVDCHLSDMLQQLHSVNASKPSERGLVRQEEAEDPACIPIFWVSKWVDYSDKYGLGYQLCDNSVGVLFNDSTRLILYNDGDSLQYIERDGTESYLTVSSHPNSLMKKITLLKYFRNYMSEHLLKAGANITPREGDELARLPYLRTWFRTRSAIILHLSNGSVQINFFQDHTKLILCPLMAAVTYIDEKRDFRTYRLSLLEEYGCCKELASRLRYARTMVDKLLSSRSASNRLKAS
experimental parameters: at 1 µM
result type: residual activity
Answers without a unit are incomplete; give the number and then its unit.

# example entries with known answers
In [3]: df
Out[3]:
                                   compound  data_value
0          O=[N+]([O-])/C=C/c1ccc2c(c1)OCO2         96%
1        CC(C)(C)c1cc(C=C(C#N)C#N)cc(Br)c1O        113%
2  COC(=O)[C@@]1(O)C[C@H]2O[C@]1(C)n1c3ccccc3c3c4c(c5c6ccccc6n2c5c31)C(=O)NC4         50%
3  CCn1cnc2c(Nc3cccc(Cl)c3)nc(N[C@@H]3CCCC[C@@H]3N)nc21         71%
4  O=c1[nH]c2ccccc2n1C1CCN(Cc2ccc(-c3nc4cc5[nH]cnc5cc4nc3-c3ccccc3)cc2)CC1        101%

So what's the measured residual activity for this one? "O=C1c2ccccc2-c2nc3nnnn3nc21"
103%

So what's the measured residual activity for this one? C[S+]([O-])c1ccc(-c2nc(-c3ccc(F)cc3)c(-c3ccncc3)[nH]2)cc1 (stereo not drawn)
117%

So what's the measured residual activity for this one? "COc1cc(OC)c(/C=C2\C(=O)Nc3ccccc32)c(OC)c1"
76%

====

Listed next: entries and their corresponding residual activity.
target system: Ephrin type-B receptor 2 (Homo sapiens) (UniProt P29323)
Sequence (whole entry): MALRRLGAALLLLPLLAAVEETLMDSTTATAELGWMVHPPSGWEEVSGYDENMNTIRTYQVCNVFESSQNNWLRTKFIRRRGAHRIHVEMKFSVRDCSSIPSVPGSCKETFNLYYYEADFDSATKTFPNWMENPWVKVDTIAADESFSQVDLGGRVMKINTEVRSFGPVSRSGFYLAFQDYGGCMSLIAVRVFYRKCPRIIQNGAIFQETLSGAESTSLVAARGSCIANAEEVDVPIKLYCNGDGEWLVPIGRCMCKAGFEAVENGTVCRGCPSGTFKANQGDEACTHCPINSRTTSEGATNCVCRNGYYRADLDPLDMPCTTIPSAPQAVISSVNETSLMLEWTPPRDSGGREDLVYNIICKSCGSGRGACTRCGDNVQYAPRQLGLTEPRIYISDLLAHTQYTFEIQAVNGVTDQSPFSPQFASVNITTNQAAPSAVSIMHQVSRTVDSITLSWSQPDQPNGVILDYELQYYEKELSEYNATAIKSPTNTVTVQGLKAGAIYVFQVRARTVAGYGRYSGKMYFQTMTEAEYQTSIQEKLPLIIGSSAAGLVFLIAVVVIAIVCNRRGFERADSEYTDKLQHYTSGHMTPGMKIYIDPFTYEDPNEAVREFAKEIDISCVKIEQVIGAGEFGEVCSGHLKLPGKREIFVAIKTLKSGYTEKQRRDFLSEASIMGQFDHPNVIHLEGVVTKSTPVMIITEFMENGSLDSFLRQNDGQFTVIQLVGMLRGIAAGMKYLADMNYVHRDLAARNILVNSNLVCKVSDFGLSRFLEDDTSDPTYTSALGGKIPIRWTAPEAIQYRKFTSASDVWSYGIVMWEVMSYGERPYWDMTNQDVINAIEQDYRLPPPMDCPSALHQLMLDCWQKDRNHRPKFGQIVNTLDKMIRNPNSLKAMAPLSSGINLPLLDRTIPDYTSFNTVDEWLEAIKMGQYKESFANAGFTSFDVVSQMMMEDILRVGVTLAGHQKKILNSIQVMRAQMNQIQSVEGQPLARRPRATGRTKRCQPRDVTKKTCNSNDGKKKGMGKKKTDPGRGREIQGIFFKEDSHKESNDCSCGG
experimental parameters: at 10 µM
Unit % implied. Number only.

So what's the measured residual activity for this one? "O=C1Nc2ccc3ncsc3c2/C1=C/c1c[nH]cn1"
29

So what's the measured residual activity for this one? "COc1ccc2c(c[n+](C)c3c4cc5c(cc4ccc23)OCO5)c1OC"
121

So what's the measured residual activity for this one? "CCn1cnc2c(Nc3cccc(Cl)c3)nc(N[C@@H]3CCCC[C@@H]3N)nc21"
0
